Test: qHTS for Inhibitors of human tyrosyl-DNA phosphodiesterase 1 (TDP1): qHTS in cells in presence of CPT; further: nearly all actives have a fitted effect of over 55% in size
Condition label: chicken DT40 Tdp1-/-;hTDP1 cells + 20 nM CPT, ATP luminescence, 48 h; series mostly up to 46.2 µM
Description: Human tyrosyl-DNA phosphodiesterase 1 (TDP1) is a novel repair gene, and we propose to use it as a new target for anticancer drug development. […] For the primary screen, Tdp1-/-;hTDP1 cells will be exposed to small molecules in the presence or absence of CPT, and their growth kinetics will be evaluated after 48 hours by measuring ATP activity. […] The hit compounds will then be evaluated in the presence or absence of CPT using Tdp1-/- cells. […]
The campaign covered roughly 420,000 compounds. About 50,000 (12%) were called active. Another 26% or so got no clear call; they are omitted. The call rests on the fitted dose curve; in most records, active means well fitted inhibition curve with a large enough effect; inconclusive means small, poorly fitted or top-dose-only effect; inactive means flat fitted curve, though single readings scatter. The sample as a whole holds a higher share of actives than the screen did.
Pick from class 1 = active, class 0 = inactive when you respond.

# Compound, Assigned label
records = [
    ("COc1ccc(C2c3c(oc4ccccc4c3=O)C(=O)N2Cc2ccc3c(c2)OCO3)cc1 (configuration not stated)", "class 0"),
]

Which result was noted for this compound in the test: Cc1cccc(C(=O)Nc2ccc(C(=O)N/N=C/c3cccc(C)n3)cc2)c1 class 0

Which result was noted for this compound in the test: COc1ccc(NC(=O)c2oc3ccc(S(=O)(=O)N4CCOCC4)cc3c2C)cc1 class 1

Which result was noted for this compound in the test: COP1(=O)C[C@@H](O)[C@@H](O)[C@@H](COCc2ccccc2)O1 (some centres not stated) class 0

Which result was noted for this compound in the test: Cc1cccc(C(=O)Nc2ccc(C(=O)/C=C/c3cccs3)cc2)c1 class 1

Which result was noted for this compound in the test: CCCC(=O)NC(=S)Nc1ccc(CN2CCOCC2)cc1 class 0

Which result was noted for this compound in the test: Cc1csc[n+]1CCC1CCCCC1 class 1

====

Test: qHTS for Inhibitors of human tyrosyl-DNA phosphodiesterase 1 (TDP1): qHTS in cells in presence of CPT; further: nearly all actives have a fitted effect of over 55% in size
Condition label: chicken DT40 Tdp1-/-;hTDP1 cells + 20 nM CPT, ATP luminescence, 48 h; series mostly up to 46.2 µM
About 50,000 (12%) of roughly 420,000 compounds were called active. Roughly 26% stayed inconclusive and do not appear here. Calls follow the shape of the dose curve; as a rule, active = well fitted inhibition curve with a large enough effect; inconclusive = small, poorly fitted or top-dose-only effect; inactive = flat fitted curve, though single readings scatter. This excerpt belongs to a sample that is enriched for actives.
Pick from yes (1) (active), no (0) (inactive) when you respond.

As a guide, the following entries are already answered.
# Molecule, Assigned label
measured = [
    ("CC1(C(=O)Nc2cccc3cccnc23)CCN1C(=O)CCC1CCCC1 (centres undefined)", "yes (1)"),
    ("CC1(C(=O)NS(=O)(=O)c2ccc(Cl)cc2)CCN1C(=O)CC1CCCC1 (centres undefined)", "no (0)"),
    ("O=C(c1ccc(Cl)c(S(=O)(=O)N2CCCCC2)c1)N1CCCCCC1", "no (0)"),
    ("Cc1cccn2c(=O)c(/C=C(\\C#N)S(=O)(=O)c3ccc(Cl)cc3)c(N3CCC(C(N)=O)CC3)nc12", "no (0)"),
    ("CC(C)CC(=O)NCC(c1ccc2c(c1)OCO2)N1CCN(c2ccc(F)cc2)CC1 (centres undefined)", "yes (1)"),
]

Which result was noted for this molecule in the test: O=C(NCc1cccs1)c1ccc(CS(=O)Cc2ccccc2Cl)o1 (centres undefined) no (0)

Which result was noted for this molecule in the test: Brc1cc(Br)c(Oc2cc(Br)c(Br)cc2Br)cc1Br no (0)

Which result was noted for this molecule in the test: Cc1ccc(NC(=O)CSc2nc(=O)n(CCN(C)C)c3c2CCCC3)c(C)c1 no (0)

Which result was noted for this molecule in the test: Cc1csc(NC(=O)CSc2nc(=O)n(CCCN(C)C)c3c2CCC3)n1 no (0)

Which result was noted for this molecule in the test: Cc1ccc(NC(=O)C(c2ccccc2)N2CCN(C(=O)c3ccco3)CC2)cc1 (centres undefined) no (0)

Which result was noted for this molecule in the test: CCOc1ccc(/C(O)=C2/C(=O)C(=O)N(Cc3cccnc3)C2c2ccc(N(C)C)cc2)c(C)c1 (centres undefined) no (0)

Which result was noted for this molecule in the test: CCC1C(=O)NCCN1C(=O)c1ccc2nc(Cc3ccc(OC)cc3)oc2c1 (centres undefined) no (0)

====

Test: qHTS for Inhibitors of human tyrosyl-DNA phosphodiesterase 1 (TDP1): qHTS in cells in presence of CPT; further: nearly all actives have a fitted effect of over 55% in size; further: potency means the concentration at half of the fitted maximal effect
Condition label: chicken DT40 Tdp1-/-;hTDP1 cells + 20 nM CPT, ATP luminescence, 48 h; series mostly up to 46.2 µM
Among all 420,000 compounds or so, about 50,000 (12%) were called active. About 26% were inconclusive and are not listed. This is one part of a sample in which actives are shown more often than they occur.
Value type: Potency

Some compounds with known Potency results, for comparison:
# Compound, Value type, Readout value
data = [
    ("CC1CN(Cc2ccccc2)C(=S)NC1=O (stereo not given)", "Potency", "inactive"),
    ("O=C(COC(=O)CCCSc1nc2ccccc2[nH]1)Nc1ccc(Oc2ccccc2)cc1", "Potency", "inactive"),
    ("Cc1cc(NS(=O)(=O)c2ccc(NC(=O)c3cccc(OC(F)F)c3)cc2)nc(C)n1", "Potency", "inactive"),
    ("Cc1ccc(SCC2=NNC(=O)C2)cc1", "Potency", "inactive"),
    ("Nc1ncnc2c1ncn2[C@@H]1O[C@H](C(=O)NS(=O)(=O)c2c(Cl)nc3sccn23)[C@@H](O)[C@H]1O", "Potency", "inactive"),
    ("CCCCN(CCCC)CCNC(=O)CN1C(=O)COc2ccc(S(=O)(=O)N3CCOCC3)cc21", "Potency", "inactive"),
]

Read the entry COc1ccccc1Cn1c(CO)nc2ccccc21 and write its reported Potency. inactive

Read the entry Cc1cccc(N2CCN(C(=O)c3ccc(Nc4nc5ccccc5n5nnnc45)cc3)CC2)c1C and write its reported Potency. inactive

Read the entry CC1(C(=O)NS(=O)(=O)c2ccccc2)CCN1C(=O)C1CCCCC1 (stereo not given) and write its reported Potency. inactive

Read the entry COc1ccc(/C=C(\C#N)c2c[nH]c3ccccc23)cc1 and write its reported Potency. 1.16 µM (active)

Read the entry Clc1ccc(-c2csc(-c3ccncc3)n2)cc1 and write its reported Potency. inactive

Read the entry CCOc1ccc(CCN2C(=O)c3cccnc3C2=O)cc1OCC and write its reported Potency. inactive

Read the entry Cc1ccc(C(=O)N/N=C/c2cccc3ccccc23)cn1 and write its reported Potency. inactive

Read the entry Oc1ccc(-c2[nH]ncc2-c2nc3ccccc3s2)c(O)c1 and write its reported Potency. inactive

Read the entry COc1ccc(Oc2cn[nH]c2-c2ccc(OC)cc2O)cc1 and write its reported Potency. 25.9 µM (active)

Read the entry Cc1cc2ccccc2n1CCC(=O)O and write its reported Potency. inactive

Read the entry CCCCN(CCCC)CCCNC(=O)CN1C(=O)COc2ccc(S(=O)(=O)N3CCC(C)CC3)cc21 and write its reported Potency. 18.4 µM (active)

Read the entry CCCc1cc(C(=O)Nc2ccc(Cl)cn2)cs1 and write its reported Potency. inactive

Read the entry CSc1ccc(NC(=O)Cn2nnnc2-c2ccccc2F)cc1 and write its reported Potency. inactive

Read the entry Cc1ccc(O)c(-c2cc(C(=O)Nc3c(C)n(C)n(-c4ccccc4)c3=O)[nH]n2)c1 and write its reported Potency. inactive

Read the entry Cc1cccc(/C=N/NC(=O)CNc2cccc3ccccc23)n1 and write its reported Potency. 18.4 µM (active)

Read the entry COc1ccc(/C=C(\NC(=O)c2ccc(OC)c(OC)c2)C(=O)NCCc2c[nH]c3ccccc23)cc1 and write its reported Potency. inactive

Read the entry Cc1ccc(-c2csc(-c3c[nH]c4ccccc34)n2)cc1 and write its reported Potency. 16.4 µM (active)

Read the entry CN(C)c1cccc(C(=O)N2CCC(n3nccc3NC(=O)C3CCOC3)CC2)c1 (stereo not given) and write its reported Potency. inactive

Read the entry CC(=O)NCCc1nc2cc(NC(=O)c3ccccc3)ccc2n1C and write its reported Potency. inactive

Read the entry CN(C)CCCNC(=O)c1cc(C(=O)Cc2ccc(Cl)cc2)c[nH]1 and write its reported Potency. inactive

Read the entry COC(=O)C(=Nc1ccccc1)/C(C(=O)C(=O)N(C)c1ccccc1)=C(\O)c1ccc(Cl)cc1 and write its reported Potency. inactive

====

Test: qHTS for Inhibitors of human tyrosyl-DNA phosphodiesterase 1 (TDP1): qHTS in cells in presence of CPT; further: nearly all actives have a fitted effect of over 55% in size; further: potency means the concentration at half of the fitted maximal effect
Condition label: chicken DT40 Tdp1-/-;hTDP1 cells + 20 nM CPT, ATP luminescence, 48 h; series mostly up to 46.2 µM
Description: Human tyrosyl-DNA phosphodiesterase 1 (TDP1) is a novel repair gene, and we propose to use it as a new target for anticancer drug development. […] For the primary screen, Tdp1-/-;hTDP1 cells will be exposed to small molecules in the presence or absence of CPT, and their growth kinetics will be evaluated after 48 hours by measuring ATP activity. […] The hit compounds will then be evaluated in the presence or absence of CPT using Tdp1-/- cells. […]
Hit rate of the full screen: of about 420,000 compounds, about 50,000 (12%) were called active. Another 26% or so got no clear call; they are omitted. The sample as a whole holds a higher share of actives than the screen did.

# Molecule, Potency
rows = [
    ("COC(=O)c1ccc(NC(=O)c2cc(S(=O)(=O)N3CCC(C)CC3)cn2C)cc1", "inactive"),
    ("O=C(NC1CCCC1)C1CC(=O)N(c2ccc(F)cc2)C1 (centres undefined)", "inactive"),
    ("COc1cc(/C=C/C(=O)O)cc(S(=O)(=O)Nc2ccccc2C(=O)NCCc2ccccc2)c1OC", "inactive"),
    ("Cn1nc(C(F)(F)F)c(C(=O)Nc2cccc(C(F)(F)F)c2)c1SCc1ccc(Cl)cc1", "16.4 µM (active)"),
]
